system: full length human Shh expressed on the cell surface (human, UniProt Q15465 24-462)
test_protocol: cell-based or functional assay
% Inhibition of Gli1 reporter, Co-Culture N = 2, 20 µg/ml values for the binders below.
Hi! Could you send only the number? It should be in %, unit omitted.

>>> value_observed("1G1 (antibody, V domains shown, fully human XenoMouse hybridoma antibody; also called MAb 1G1) VH: EVQLVESGGGLVKPGGSLRLSCAASGFTFSSYSMNWVRQAPGKGLEWVSSFSSSSSYIYYADSVKGRFTISRDNAKNSLYLQMNSLRAEDTAVYYCARDRGDYVDYYYGMDVWGQGTTVTVSS VL: SYELTQPPSVSVSPGQTASITCSGDKLDYKYICWYQQKPGQSPVLVIYQDIKRPSGIPERFSGSNSGNTATLTISGTQAMDEADYYCQAWDSNTPLVFGGGTKLTVL")
55

Task: Bench note: what % Inhibition of Gli1 reporter, Co-Culture N = 2, 20 µg/ml did 1A12 (antibody, V domains shown, fully human XenoMouse hybridoma antibody; tested as hybridoma supernatant and as purified antibody; also called MAb 1A12) VH: QVYLVESGGGVVQPGRSLRLSCAASGFTFSSYGMHWVRQAPGKGLEWVAVIWYDGSNEYYADSVKGRFTISRDNSKNTLYLQMNSLRAEDTAVYYCARDLYYYGSGSPFDYWGQGTLVTVSS VL: EIVMTQSPATLSVSPGERATLSCRASQSVSSNLAWYQQKPGQAPRLLIFGVSIRATGIPARFSGSGSGTEFTLTISSLQSEDFAVYYCQQYNDWPRPGFGGGTKVEIK show?
Result: 59

Task: Bench note: what % Inhibition of Gli1 reporter, Co-Culture N = 2, 20 µg/ml did 1A5 (antibody, V domains shown, fully human XenoMouse hybridoma antibody; tested as hybridoma supernatant and as purified antibody; also called MAb 1A5) VH: EVQVVESGGDLIQPGGSLRLSCVASGFTVSSNYMNWVRQAPGKGLEWVSVIYSGGNTYYADSVKGRFTISRDNSKNTLYLQMNSLRAEDTAVYYCARDSSVVVGLGYFDLWGRGTLVTVSS VL: SYELTQPPSVSVSPGQTASITCSGDKLGANYASWYQQKPGQSPVLVIFQDTKRPSGIPERFSGSNSGNTATLTISGTQAMDEADYYCQAWDFSTVIFGGGTKLTVL show?
Result: 20

Task: Bench note: what % Inhibition of Gli1 reporter, Co-Culture N = 2, 20 µg/ml did 1C8 (antibody, V domains shown, fully human XenoMouse hybridoma antibody; tested as hybridoma supernatant and as purified antibody; also called MAb 1C8) VH: EVQLVESGGGLIQPGGSLRLSCAVSGFTVSSNCMNWVRQAPGKGLEWVSVIYSGGKTAYADSVKGRFTISRDNSKNTLCLQMNSLRAEDTAVYYCARDSSMVVGLGYFDLWGRGTLVTVSS VL: SYELTQPPSVSVSPGLTASITCSGDKLGYKYASWYQQKPGQSPVLVIYQDIKRPSGIPERFSGSNSGNTATLTISGTQAMDEADYYCQAWDSSTVVFGGGTKLTVL show?
Result: 10

Task: Bench note: what % Inhibition of Gli1 reporter, Co-Culture N = 2, 20 µg/ml did 1G12 (antibody, V domains shown, fully human XenoMouse hybridoma antibody; tested as hybridoma supernatant and as purified antibody; also called MAb 1G12) VH: QVQLVESGGGVVQPGRSLRLSCAASGFTFSTYGMHWVRQAPGKGLEWVAVIWYDGSNKYYADSVNGRFTISRDNSKNTLYLQMNSLRGEDTAVYYCARDLYYYGSGSPFDYWGQGTLVTVSS VL: EIVMTQSPATLSVSPGERVTLSCRASQSVSSNLAWYQQKPGQAPRLLIYGVSIRATGIPARFSGSGSGTEFTLTISSLQSEDFAVYYCQQYDNWPRPGFGGGTKVEIK show?
Result: 43

Task: Bench note: what % Inhibition of Gli1 reporter, Co-Culture N = 2, 20 µg/ml did 1H12 (antibody, V domains shown, fully human XenoMouse hybridoma antibody; tested as hybridoma supernatant and as purified antibody; also called MAb 1H12) VH: QVQLVQSGAEVKKPGASVKVSCKASGYTFTGYYMHWVRQAPGQGLEWVGWFNPNSGGTNCAQKFQGRVTMTRDTSISTAYMELSRLRSDDTAVYYCAREAVESYYYGLDVWGQGTTVTVSS VL: QSVVTQPPSASGTPGQRITISCSGSSSNIGSNYVYWYHQLPGSAPNLLIYRNNQRPSGVPDRFSGSKSGTSASLAISGLRSEDEADYFCAVWDDSLRGVVFGGGTKLTVL show?
Result: 15

Task: Bench note: what % Inhibition of Gli1 reporter, Co-Culture N = 2, 20 µg/ml did 3H8 (antibody, V domains shown, fully human XenoMouse hybridoma antibody; also called MAb 3H8) VH: QVQLVESGGGVVQPGRSLRLSCAASGFTFSTYGMHWVRQAPGKGLEWVAVIWYDGSNKYYADSVKGRFTISRDNSKNTLNLQMNSLRAEDTAVYYCARDLYYYGSGSPFDYWGQGTLVTVSS VL: EIVMTQSPATLSVSPGERATLSCRASQSVSSNLAWYQQKPGQAPRLLIFGVSIRATGIPARFSGSGSGTEFTLTISSLQSEDFAVYYCQQYNNWPRPGFGGGTKVEIK show?
Result: 87

Task: Bench note: what % Inhibition of Gli1 reporter, Co-Culture N = 2, 20 µg/ml did 1H10 (antibody, V domains shown, fully human XenoMouse hybridoma antibody; tested as hybridoma supernatant and as purified antibody; also called MAb 1H10) VH: QVQLVESGGGVVQPGRSLRLSCAASGFTFSSYGMHWVRQAPGKGLEWVAVIWNDGSNEYYADSVKGRFTISRDNSKNTLYLQMNSLRAEDTAVYYCARDLYYYGSGSPFDDWGQGTLVTVSS VL: EIVMTQSPGTLSVSPGERATLSCRASQSVGSNLAWYQQKPGQAPRLLIFGVSIRATGVPARFSGSGSGTEFTLTISSLQSEDFAVYYCQQYNDWPRPGFGGGTKVEIK show?
Result: 68

Task: Bench note: what % Inhibition of Gli1 reporter, Co-Culture N = 2, 20 µg/ml did 4B6 (antibody, V domains shown, fully human XenoMouse hybridoma antibody; tested as hybridoma supernatant and as purified antibody; also called MAb 4B6) VH: QVQLVESGGGVVQPGRSLRLSCAASGFTFSTYGMHWVRQAPGKGLEWVAVIWYDGSNEYYADSVKGRFTISRDNSKNTLYLQMNSLRAEDTAVYYCARDLYYYGSGSPFDYWGQGTLVTVSS VL: EIVMTQSPATLSVSPGERATLSCRASQSVSSNLAWYQQKPGQAPRLLIFGISIRATGIPARFSGSGSGTEFTLTISSLQSEDFAVYYCQQYNDWPRPGFGGGTRVEIK show?
Result: 76

Task: Bench note: what % Inhibition of Gli1 reporter, Co-Culture N = 2, 20 µg/ml did 6D7 (antibody, V domains shown, fully human XenoMouse hybridoma antibody; also called MAb 6D7) VH: QVQLQESGPGLVKPSQTLSLTCTVSGGSINSGGFYWSWIRQHPGKNLEWIGSIYYSGNTYYNPSLKSRVTISVDTSKNQFSLKLTSVTAADTAVYYCARGNDSGDYDWYFDLWGRGTLVTVSS VL: SYELTQPPSVSVSPGQTASITCSGEKLGYKYVCWYQQKPGQSPVLVIFHDNKRPSGIPERFSGSNSGNTATLTISGAQAMDEADYYCQAGDSSAVFGGGTKLTVL show?
Result: 68
